- Tested on: anti-equol monoclonal antibody composition
- assayText: Evaluating cross-reactivity of anti-equol monoclonal antibody composition
- Type: binding, mouse
- statedConditions: compound at 10 μM; S-equol as 100%
Catalogue of Cross-reactivity with S-equol (%) readings, one per entry.
measuredProperty: Cross-reactivity with S-equol (%)

In [3]: df
Out[3]:
                                   compound                   measuredproperty  scaleunit  reading
0       COc1cc2c(=O)c(-c3ccc(O)cc3)coc2cc1O  Cross-reactivity with S-equol (%)          %     0.00
1      O=c1cc(-c2ccc(O)cc2)oc2cc(O)cc(O)c12  Cross-reactivity with S-equol (%)          %     0.00
2  O=c1oc2c(O)c(O)cc3c(=O)oc4c(O)c(O)cc1c4c23 [Ellagic acid dihydrate, ellagic acid dihydrate]  Cross-reactivity with S-equol (%)          %     0.00
3     C[C@@H](C(=O)c1ccc(O)cc1O)c1ccc(O)cc1  Cross-reactivity with S-equol (%)          %     0.00
4                   O=C(O)c1cc(O)c(O)c(O)c1  Cross-reactivity with S-equol (%)          %     0.74
5         Oc1ccc([C@@H]2COc3cc(O)ccc3C2)cc1  Cross-reactivity with S-equol (%)          %   109.59
6          Oc1ccc([C@H]2COc3cc(O)ccc3C2)cc1  Cross-reactivity with S-equol (%)          %   100.00
7         O=c1c(-c2ccc(O)cc2)coc2cc(O)ccc12  Cross-reactivity with S-equol (%)          %     0.00
8      O=c1c(-c2ccc(O)cc2)coc2cc(O)cc(O)c12  Cross-reactivity with S-equol (%)          %     0.00
